molecular target: human CXCR4 receptor (wild type) (human, UniProt P61073 1-352); experiment: cell-based or functional assay
Sequence (P61073 whole entry): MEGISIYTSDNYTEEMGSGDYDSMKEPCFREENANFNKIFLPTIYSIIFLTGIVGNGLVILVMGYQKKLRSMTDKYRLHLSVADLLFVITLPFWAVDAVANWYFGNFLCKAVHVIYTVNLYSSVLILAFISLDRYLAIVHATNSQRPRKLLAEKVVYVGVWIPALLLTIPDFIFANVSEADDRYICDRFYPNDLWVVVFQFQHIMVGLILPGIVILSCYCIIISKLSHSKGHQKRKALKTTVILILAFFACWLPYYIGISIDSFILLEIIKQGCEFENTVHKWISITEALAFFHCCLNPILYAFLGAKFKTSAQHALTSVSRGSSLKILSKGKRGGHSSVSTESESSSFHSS
property: inhibition of SDF-1-induced β-arrestin recruitment (BRET)

Field: example entries. Status: answers known.
binder	reported
anti-CXCR4 Mab 414H5 (antibody, V domains shown) VH: EVKLVESGGGLVQPGGSLRLSCTTSGFTFTDYYMSWVRQSPGKALEWLTFIRNKANGYTTEYSASVKGRFTISRDNSQSILYLQMNTLRAEDSATYYCARDIPGFAYWGQGTLVTVSA VL: DIVMSQSPSSLAVSAGEKVTMSCKSSQSLYNSRTRKNYLAWYQQKPGQSPKLLIYWASTRESGVPDRFTGSGSGTDFTLTITSVQAEDLAVFYCKQSYNLRTFGGGTKLEIK	~20%
anti-CXCR4 chimeric Mab c515H7 (antibody, human IgG1, kappa, V domains shown, they may be whole chains; also called chimeric 515H7) VH: EVNLVESGGGLVQPGGSLRLSCATSGFTFTDNYMSWVRQPPGKALEWLGFIRNKANGYTTDYSASVRGRFTISRDNSQSILYLQMNALRAEDSATYYCARDVGSNYFDYWGQGTTLTVSS VL: DIVMSQSPSSLAVSAGEKVTMSCKSSQSLFNSRTRKNYLAWYQQKPGQSPKLLIYWASARDSGVPARFTGSGSETYFTLTISRVQAEDLAVYYCMQSFNLRTFGGGTKLEIKR	93%
humanized antibody Hz515H7 VH1 D76N VL2.3 (antibody, human IgG1, kappa, V domains shown) VH: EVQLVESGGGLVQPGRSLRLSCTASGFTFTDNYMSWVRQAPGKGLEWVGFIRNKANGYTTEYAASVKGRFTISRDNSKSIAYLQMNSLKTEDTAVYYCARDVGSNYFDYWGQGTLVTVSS VL: DIVMTQSPDSLAVSLGERATMSCKSSQSLFNSRTRKNYLAWYQQKPGQPPKLLIYWASARDSGVPDRFTGSGSETYFTLTISSLQAEDLAVYYCMQSFNLRTFGQGTKVEIKR	~71%

Quick check: inhibition of SDF-1-induced β-arrestin recruitment (BRET) of humanized antibody Hz515H7 VH1 D76N VL2.2 (antibody, human IgG1, kappa, V domains shown) VH: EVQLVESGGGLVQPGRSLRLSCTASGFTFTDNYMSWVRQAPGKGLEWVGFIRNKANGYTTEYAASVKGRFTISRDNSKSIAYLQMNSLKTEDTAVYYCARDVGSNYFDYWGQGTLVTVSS VL: DIVMTQSPDSLAVSLGERATMSCKSSQSLFNSRTRKNYLAWYQQKPGQPPKLLIYWASARDSGVPDRFTGSGSETYFTLTISRVQAEDVAVYYCMQSFNLRTFGQGTKVEIKR ? ~82%

Quick check: inhibition of SDF-1-induced β-arrestin recruitment (BRET) of anti-CXCR4 Mab 515H7 (antibody, V domains shown) VH: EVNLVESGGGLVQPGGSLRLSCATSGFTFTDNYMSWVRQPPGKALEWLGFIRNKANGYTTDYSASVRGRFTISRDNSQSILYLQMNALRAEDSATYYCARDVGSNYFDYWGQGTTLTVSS VL: DIVMSQSPSSLAVSAGEKVTMSCKSSQSLFNSRTRKNYLAWYQQKPGQSPKLLIYWASARDSGVPARFTGSGSETYFTLTISRVQAEDLAVYYCMQSFNLRTFGGGTKLEIK ? 95%

Quick check: inhibition of SDF-1-induced β-arrestin recruitment (BRET) of anti-CXCR4 chimeric Mab c414H5 (antibody, human IgG1, kappa, V domains shown, they may be whole chains; also called chimeric 414H5) VH: EVKLVESGGGLVQPGGSLRLSCTTSGFTFTDYYMSWVRQSPGKALEWLTFIRNKANGYTTEYSASVKGRFTISRDNSQSILYLQMNTLRAEDSATYYCARDIPGFAYWGQGTLVTVSA VL: DIVMSQSPSSLAVSAGEKVTMSCKSSQSLYNSRTRKNYLAWYQQKPGQSPKLLIYWASTRESGVPDRFTGSGSGTDFTLTITSVQAEDLAVFYCKQSYNLRTFGGGTKLEIKR ? ~63%

Quick check: inhibition of SDF-1-induced β-arrestin recruitment (BRET) of humanized antibody Hz515H7 VH1 D76N VL2.1 (antibody, human IgG1, kappa, V domains shown) VH: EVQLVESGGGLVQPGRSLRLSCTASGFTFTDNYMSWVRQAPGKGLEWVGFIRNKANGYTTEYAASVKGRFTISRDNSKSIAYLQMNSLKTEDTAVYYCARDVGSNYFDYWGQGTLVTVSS VL: DIVMTQSPDSLAVSLGERATMSCKSSQSLFNSRTRKNYLAWYQQKPGQPPKLLIYWASARDSGVPDRFSGSGSETYFTLTISRVQAEDLAVYYCMQSFNLRTFGQGTKVEIKR ? ~81%

Quick check: inhibition of SDF-1-induced β-arrestin recruitment (BRET) of humanized antibody Hz515H7 VH1 D76N VL2 (antibody, human IgG1, kappa, V domains shown) VH: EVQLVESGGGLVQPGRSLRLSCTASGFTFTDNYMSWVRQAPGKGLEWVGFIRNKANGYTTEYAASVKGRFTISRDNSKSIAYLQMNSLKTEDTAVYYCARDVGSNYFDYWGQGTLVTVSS VL: DIVMTQSPSSLAVSLGERATMSCKSSQSLFNSRTRKNYLAWYQQKPGQSPKLLIYWASARDSGVPARFTGSGSETYFTLTISRVQAEDLAVYYCMQSFNLRTFGQGTKVEIKR ? ~94%
